Assay: In vitro metabolic conversion assay using human liver S9 fractions
Type: in vitro ADME
Conditions: 10 μM, 37° C., 60 minutes, LC/MS/MS
measured-parameter: % of Parent Remaining (%)

[
  {
    "compound-smiles": "Nc1ccn([C@@H]2O[C@H](COC(=O)CCCCC(=O)Nc3ccccc3)[C@@H](O)C2(F)F)c(=O)n1",
    "% of Parent Remaining, %": 8
  },
  {
    "compound-smiles": "CCOC(=O)Nc1ccn([C@@H]2O[C@H](CO)[C@@H](OC(=O)CCc3ccccc3)C2(F)F)c(=O)n1",
    "% of Parent Remaining, %": 0
  },
  {
    "compound-smiles": "Nc1ccn([C@@H]2O[C@H](COC(=O)CCc3ccccc3)[C@@H](O)C2(F)F)c(=O)n1",
    "% of Parent Remaining, %": 1
  },
  {
    "compound-smiles": "CCOC(=O)Nc1ccn([C@@H]2O[C@H](COC(=O)CCCCCCC(=O)Nc3ccccc3)[C@@H](O)C2(F)F)c(=O)n1",
    "% of Parent Remaining, %": 0
  },
  {
    "compound-smiles": "CCOC(=O)Nc1ccn([C@@H]2O[C@H](COC(=O)CCc3cccnc3)[C@@H](O)C2(F)F)c(=O)n1",
    "% of Parent Remaining, %": 0
  }
]

1 = CCOC(=O)Nc1ccn([C@@H]2O[C@H](COC(=O)CCc3ccccc3)[C@@H](O)C2(F)F)c(=O)n1
2 = CCOC(=O)Nc1ccn([C@@H]2O[C@H](CO)[C@@H](OC(=O)CCc3cccnc3)C2(F)F)c(=O)n1
3 = CCOC(=O)Nc1ccn([C@@H]2O[C@H](CO)[C@@H](OC(=O)CCCCCCC(=O)Nc3ccccc3)C2(F)F)c(=O)n1
4 = CCOC(=O)Nc1ccn([C@@H]2O[C@H](COC(=O)CCCCC(=O)Nc3ccccc3)[C@@H](O)C2(F)F)c(=O)n1
### Prompt Place the items in sequence of falling % of Parent Remaining. Please express your ranking as an ordered list of the labels.
### Response 4, 3, 2, 1
(4: 13%, 3: 2%, 2: 1%, 1: 0%)

---

Tested on: human HCT116 colorectal adenocarcinoma
Test: Efficacy evaluation in HCT116 tumor cell xenograft model in nude mice
Type: in vivo
Settings: perorally in 15% Tween 80, 20 mg/kg once daily for 14 days; female nude mice, subcutaneous HCT116 tumors; Day 14 vs control group
Method: Method I: Efficacy Evaluation in HCT116 Tumor Cell Xenograft Model in Nude Mice Compounds 17, 18, 19 and 32 were evaluated for oral activity against human HCT116 colorectal adenocarcinoma in female nude mice. For the treatment groups, the above compounds were given perorally in 15% Tween 80 at a dose of 20 mg/kg once daily for 14 days. As a reference group, gemcitabine was administered intraperitoneally at 160 mg/kg once every three days for 4 doses. […]
measured-parameter: Tumor Growth Inhibition (TGI) (%)
Unit % implied. Number only.

[
  {
    "compound-smiles": "CCCCCOC(=O)Nc1ccn([C@@H]2O[C@H](COC(=O)CCc3cccnc3)[C@@H](O)C2(F)F)c(=O)n1",
    "Tumor Growth Inhibition (TGI) (%)": 86.7
  },
  {
    "compound-smiles": "CCCCOC(=O)Nc1ccn([C@@H]2O[C@H](COC(=O)CCc3ccccc3)[C@@H](O)C2(F)F)c(=O)n1",
    "Tumor Growth Inhibition (TGI) (%)": 77.3
  }
]

Known value: human HCT116 colorectal adenocarcinoma Tumor Growth Inhibition (TGI) of the compound CCCCOC(=O)Nc1ccn([C@@H]2O[C@H](COC(=O)CCC(=O)Nc3ccccc3)[C@@H](O)C2(F)F)c(=O)n1 equals 75.8

Known value: human HCT116 colorectal adenocarcinoma Tumor Growth Inhibition (TGI) of the compound CCCCOC(=O)Nc1ccn([C@@H]2O[C@H](COC(=O)CCc3cccnc3)[C@@H](O)C2(F)F)c(=O)n1 equals 81.1
